- Test system: c-myc
- experiment description: Immunoblot of c-myc (SALL4 downstream target) in SNU-398 cells
- Assay type: cell-based, human
- condition context: Homo sapiens; SNU-398 HCC cells, 24 h treatment; read-out: suppression of SALL4 downstream target c-myc, IC50
- Procedure: RIPA buffer containing freshly added protease inhibitors (2 mM PMSF) and protease inhibitor cocktail was used for cell lysis. The lysed cells were incubated for 10 min on ice and subsequently centrifuged at 4° C. for 10 min at 14,000 rpm. The protein concentrations of cell lysates were assessed using Bradford Assay as per manufacturer's instructions. The samples were denatured using 4× Sample buffer at 95° C. for 5 min. […]
pIC50: −log10 of the molar value.
property measured: pIC50

Task item: Using the record for COc1ccccc1NC(=O)Nc1ccc([N+](=O)[O-])cc1O , report its pIC50.
Reply: ~5.29
